# Target Or Test System: EGFR ins SVD (insertion of SVD between D770 and N771) (Homo sapiens, UniProt P00533, INS767SVD)
# Sequence (P00533 with tags, fused parts or gaps INS767SVD limits assumed): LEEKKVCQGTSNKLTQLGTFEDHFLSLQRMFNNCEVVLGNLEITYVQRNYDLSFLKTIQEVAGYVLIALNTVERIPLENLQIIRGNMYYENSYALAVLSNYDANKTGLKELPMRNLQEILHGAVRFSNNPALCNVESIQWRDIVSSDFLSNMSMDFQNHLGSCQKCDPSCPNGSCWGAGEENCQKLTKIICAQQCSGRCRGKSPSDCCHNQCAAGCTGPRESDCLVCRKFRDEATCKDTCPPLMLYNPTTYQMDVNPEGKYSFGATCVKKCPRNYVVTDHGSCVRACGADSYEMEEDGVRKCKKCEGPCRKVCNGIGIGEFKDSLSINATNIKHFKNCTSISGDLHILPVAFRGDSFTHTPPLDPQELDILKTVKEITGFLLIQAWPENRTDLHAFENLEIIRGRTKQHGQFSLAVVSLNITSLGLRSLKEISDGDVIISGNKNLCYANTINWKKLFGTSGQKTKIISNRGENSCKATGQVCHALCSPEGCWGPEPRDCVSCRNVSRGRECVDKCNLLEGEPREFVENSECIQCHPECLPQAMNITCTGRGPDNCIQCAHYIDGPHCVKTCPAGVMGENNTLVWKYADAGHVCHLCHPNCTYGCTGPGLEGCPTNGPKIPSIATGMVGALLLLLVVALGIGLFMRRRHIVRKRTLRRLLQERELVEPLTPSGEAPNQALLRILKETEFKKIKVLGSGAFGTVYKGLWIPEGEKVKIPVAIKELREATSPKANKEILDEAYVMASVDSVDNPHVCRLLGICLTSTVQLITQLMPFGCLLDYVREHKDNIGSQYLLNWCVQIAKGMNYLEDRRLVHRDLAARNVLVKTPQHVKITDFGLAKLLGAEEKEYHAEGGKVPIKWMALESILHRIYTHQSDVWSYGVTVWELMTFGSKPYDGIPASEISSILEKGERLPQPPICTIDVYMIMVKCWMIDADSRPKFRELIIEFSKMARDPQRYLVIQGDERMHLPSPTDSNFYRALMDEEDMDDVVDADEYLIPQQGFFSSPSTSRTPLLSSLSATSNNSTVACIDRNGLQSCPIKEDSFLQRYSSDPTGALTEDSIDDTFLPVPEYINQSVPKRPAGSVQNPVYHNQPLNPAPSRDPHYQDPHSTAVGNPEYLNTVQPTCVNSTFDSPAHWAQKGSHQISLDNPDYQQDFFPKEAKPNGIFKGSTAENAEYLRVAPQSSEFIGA
# Method Summary: Exon 20-Mutant-EGFR(D770_N771insSVD) kinase assay (TR-FRET)
# Type: biochemical
# Conditions: Table 9; read-out: mutEGFR (D770_N771insSVD) kinase assay IC50
pIC50: −log10 of the molar value.
pIC50 below 9 gives NO; pIC50 at or above it gives YES.

Recorded results for 5 compounds are shown here.
>  <Compound>
COc1c(Cl)cccc1Nc1c(-c2ccncc2OCC2CCCCN2C)[nH]c2c1C(=O)NCC2 (centres unmarked) [Example 63]

>  <Category>
YES

$$$$
>  <Compound>
COc1c(Cl)cccc1Nc1c(-c2ccncc2OC[C@@H]2CCCN2)[nH]c2c1C(=O)NCC2 [Example 80]

>  <Category>
YES

$$$$
>  <Compound>
COc1c(F)cccc1Nc1c(-c2ccncc2OCCN(C)C)[nH]c2c1C(=O)NCC2 [Example 53]

>  <Category>
YES

$$$$
>  <Compound>
COCCOc1cnccc1-c1[nH]c2c(c1Nc1ccccc1OC)C(=O)NCC2 [Example 13]

>  <Category>
NO

$$$$
>  <Compound>
COc1c(F)cccc1Nc1c(-c2ccncc2OCC2CCCO2)[nH]c2c1C(=O)NCC2 (centres unmarked) [Example 86]

>  <Category>
YES

$$$$

// inclusive: pIC50 at least 9? input: COc1c(Cl)cccc1Nc1c(-c2ccncc2OC[C@H]2CCCO2)[nH]c2c1C(=O)NCC2 [Example 67] YES

Origin of values: patent US11339157B1
